system: SNB-78 CNS; assay: NCI tumour cell line growth inhibition, 48 h
measured property: TGI

Quick one: give me TGI for each item below, same order please.
1. CCCCCN(CCCCC)C(=O)[C@@H](CCC(=O)OCc1ccccc1)NC(=O)c1cc2ccccc2[nH]1
2. c1ccc2cc3n[se]nc3cc2c1
3. Cc1ccc2c(c1)NC(=O)C(N=[N+]=[N-])(c1ccccc1)C2=O (stereo not drawn)
4. CC1=NN(C(=O)c2ccc(Cl)cc2)C(=O)/C1=C/c1cccc(O)c1
5. CC(=O)Nc1ccc(/C=c2\sc3nnc(/C=C/c4ccccc4)n3c2=O)cc1
6. C=C1C(=O)C=C2C=C3C(=O)C(C)(C)C[C@]3(O)C12C (stereo partly drawn)
7. Cc1ccc(S(=O)(=O)C2=c3ncccc3=C3C(=O)c4ccccc4C(=O)C32)cc1 (stereo not drawn)

1. > 100 µM
2. > 100 µM
3. 64.3 µM
4. > 100 µM
5. > 50 µM
6. 21 µM
7. > 100 µM

TGI for CN(C)CC1(C)CC/C(=C\c2ccc3c(c2)OCO3)C1=O (stereo not drawn) is > 100 µM

* * *

test system: DMS 114 small cell lung; assay: NCI tumour cell line growth inhibition, 48 h
Where a SMILES comes first, the peptide text is derived from it. [ ]: non-standard residue; d: D form. 2Nal = N[CH](Cc1ccc2ccccc2c1)C(=O)O
measured property: TGI (µM)
One number for each entry, in µM.

For orientation, consider the following solved cases.
compound	TGI / µM
Cc1[nH]n(-c2ccccc2)c(=S)c1C(=O)c1ccccc1	99.1
CC(C)(C)C1CCC2c3c([nH]c4ccccc34)C3C(=O)N(c4ccc(Br)cc4)C(=O)C3C2C1 (centres undefined)	41.6
CC(NC(=O)C(N)Cc1ccccc1)C(=O)NC(Cc1ccc(O)cc1)C(=O)NC(Cc1c[nH]c2ccccc12)C(=O)NC(CCCCN)C(=O)NC(C(=O)NC(C)C(=O)NC(Cc1ccc2ccccc2c1)C(N)=O)C(C)C (centres undefined) (H-FAYWKVA[2Nal]-NH2; configuration not given here)	92.6

In the following, a different compound is considered.
Notebook: O=C(O)/C(O)=C1/C=C(c2ccccc2)c2ccccc21 , TGI read as 37.6

* * *

system: HOP-62 NSCLC; assay: NCI tumour cell line growth inhibition, 48 h
Could you please report measured GI50 for the items listed next?

Here's what some known entries look like.
molecule	GI50
O=C(Oc1ccc([N+](=O)[O-])cc1)N1CCC(C(O)(c2ccc3c(c2)OCO3)c2ccc3c(c2)OCO3)CC1	> 100000 nM
Cc1cc(NC(=O)CCc2ccc(N3C(N)=NC(N)=NC3(C)C)cc2)ccc1S(=O)(=O)F	20900 nM
O=C(Nc1ccc(-n2cc(-c3ccncc3)c(-c3ccc(Cl)c(O)c3)n2)cc1)c1cc(Cl)cc(Cl)c1	2490 nM

Answer for every listed entry: what is its GI50? The entries follow.
1. Cc1ccnc2c1NC(=O)c1cccnc1N2C1CC1
2. C[C@]12CC[C@H]3[C@@H](C[C@@H]4SC(Nc5cccc(F)c5)=N[C@@]45CC(=O)CC[C@]35C)[C@@H]1CCC2=O
3. COC(=O)c1c2c(c(C)[n+]([O-])c1C)C(=O)C(NCc1ccc(F)c(Cl)c1)=CC2=O
4. O=C1Nc2ccccc2SC1C1SC(=S)N(Cc2ccccc2)C1=O (stereo unspecified)

1. > 100000 nM
2. 2070 nM
3. 2960 nM
4. 6620 nM

* * *

tested on: MOLT-4 leukemia; assay: NCI tumour cell line growth inhibition, 48 h; in the data active means GI50 below about 0.43 µM; inactive means the rest
I would appreciate it if you answered using one of these outcomes: T = active, F = inactive

// known answers, use as guide
molecule	qualitative label
O=C=Nc1ccc(Cc2ccc(N=C=O)cc2)cc1 (tested in a mixture with another compound)	F
Cc1ccnc2c1NC(=O)c1cccnc1N2C1CC1	F
CN(C)CCCC1(c2ccc(F)cc2)OCc2cc(-c3ccc4cc[nH]c4c3)ccc21 (configuration not stated)	F
Nc1cc(C(F)F)c(-c2nc(N3[C@@H]4CC[C@H]3COC4)nc(N3[C@@H]4CC[C@H]3COC4)n2)cn1	F
NC(N)=NC(N)=NCCc1ccccc1	F

Status in this test for NC(=O)c1c(OCc2c(F)cc(Br)cc2F)nsc1NC(=O)NCCCCN1CCCC1 ?
F

Hello, I am checking results. What call was entered for Cc1cc(N2CCN(C)CC2)nc(NC2CCCC(Nc3ccnc4cc(Cl)ccc34)C2)n1 (configuration not stated) ?
F

Tell me the recorded outcome of this test for O=c1cccc(C#CCCCCOC2CCCO2)o1 (configuration not stated) .
F

Just curious, what result did COCCOC(C)C(/C=N/NC(N)=S)=N/NC(N)=S (configuration not stated) get here?
T

Assay result, entry O=C1Nc2ccccc2SC1C1SC(=S)N(Cc2ccccc2)C1=O (configuration not stated) — outcome?
F

Outcome logged for C[C@]12CC[C@@H]3c4ccc(O)cc4CC[C@H]3[C@@H]1CC[C@@H]2NS(=O)(=O)c1cccc(Br)c1 in this assay:
F

Could you kindly confirm the outcome this assay logged for C#C[C@]1(O)CC[C@H]2[C@@H]3CC=C4c5nc(Nc6ccc(OC)cc6OC)sc5CC[C@]4(C)[C@H]3CC[C@@]21C ?
F

* * *

system: U251 CNS; assay: NCI tumour cell line growth inhibition, 48 h
measured property: TGI (µM)
Give bare numbers, in µM.

Please review the entries below; each comes with its answer.
compound	target desc	TGI / µM
O=C1C(Nc2ccccn2)=C(I)C(=O)c2ncccc21	U251 CNS	2.07
Cc1ccc2c(c1)NC(=O)C(N=[N+]=[N-])(c1ccccc1)C2=O (stereo not given)	U251 CNS	74.6

So for O=S(=O)(Nc1ccc(Cl)c(C(F)(F)F)c1)c1ccc(-c2cnc(C3CC3)o2)cc1 , the logged TGI turned out to be 10.9

* * *

Give TGI for every item shown.
system: UO-31 renal; test: NCI tumour cell line growth inhibition, 48 h

Take a look at these entries with their results.
compound	target desc	result
O=C1C=C(Br)C(=O)C(Br)=C1	UO-31 renal	> 100 µM
CC1CC2C3CC(F)C4=CC(=O)C=CC4(C)C3(F)C(O)CC2(C)C1(O)C(=O)CO (stereo not given)	UO-31 renal	> 100 µM
N#Cc1c(NC(=O)CCC(=O)O)ccc2ccccc12	UO-31 renal	> 100 µM
CC(C)CCNC(=O)c1ccc(CNC(=O)/C=C/c2ccc(-c3ccccc3[N+](=O)[O-])o2)cc1	UO-31 renal	> 100 µM
Nc1nc(Cl)c2ncn(Cc3ccccc3CCl)c2n1	UO-31 renal	45 µM

Answer for every listed entry: what is its TGI? The entries follow.
1. COc1cc2c(cc1OC)-c1c(cc(OC)c(OC)c1OC)C2=O
2. O=C1c2cccc3c(N4CCN(c5ccc6c7c(cccc57)C(=O)N(CCN5CCNCC5)C6=O)CC4)ccc(c23)C(=O)N1CCN1CCNCC1
3. N#Cc1c(N2CCOCC2)ncn(-c2ccccc2)c1=O
4. C=CC(=O)Nc1cc2c(Nc3ccc(OCc4ccccn4)c(Cl)c3)ncnc2cc1OCCN1CCOCC1
5. CN1c2ccccc2C2c3c(O)ccc(O)c3C=C([N+](=O)[O-])C21 (stereo not given)

1. > 100 µM
2. 33 µM
3. > 100 µM
4. > 100 µM
5. 2.1 µM

* * *

tested on: LOX IMVI melanoma; assay: NCI tumour cell line growth inhibition, 48 h
I'd be grateful if you could share measured TGI for these entries.

Examples with answers:
compound	target desc	result
Nc1nc(Cl)cc(Nc2ccc3c(c2)CCC3)n1	LOX IMVI melanoma	> 100 µM
COc1ccc2[nH]cc(/C=C3\C(=O)Nc4ccccc43)c2c1	LOX IMVI melanoma	15.9 µM
CC(C)(C)OC(=O)C(C1NC(C(=O)O)C(C)(C)S1)N1C(=O)c2ccccc2C1=O (stereo not drawn)	LOX IMVI melanoma	> 100 µM
Cc1oc2c(c1C(=O)c1ccccc1)C(=O)c1ccccc1C2=O	LOX IMVI melanoma	7.52 µM
CN1N=C(c2ccncc2)OC1c1ccc(Cl)c(Cl)c1 (stereo not drawn)	LOX IMVI melanoma	> 100 µM
O=C(O)C1Cc2nc[nH]c2CN1 (stereo not drawn)	LOX IMVI melanoma	> 100 µM
Cc1ccc(S(=O)(=O)n2ccn3c(=O)cc(C)nc23)cc1	LOX IMVI melanoma	> 10 µM
COc1cc(C2C(C(=O)O)=C(C)Oc3cc4c(cc32)OCO4)cc(OC)c1OC (stereo not drawn)	LOX IMVI melanoma	> 100 µM
c1ccc2cc3n[se]nc3cc2c1	LOX IMVI melanoma	> 100 µM
Cc1c(-c2ccccc2)n(C)c2cn[nH]c(=O)c12	LOX IMVI melanoma	38.3 µM

Provide reported TGI for each item, in the same order as listed.
1. N#Cc1c(N2CCOCC2)ncn(-c2ccccc2)c1=O
2. C(/COc1cccnc1)=N\NC1=NCCN1
3. CC[C@H](CCCCC1CC[C@@H]2CC(=O)C[C@H]12)OC (stereo partly drawn)
4. Cc1ccc2c(c1)NC(=O)C(N=[N+]=[N-])(c1ccccc1)C2=O (stereo not drawn)

1. > 100 µM
2. > 100 µM
3. > 100 µM
4. 37.7 µM
